Reported MIC (%) - cidal, Staph (Axilla) values for the following molecules.
Tested on: Staph (Axilla)
TEST SUMMARY: In vitro minimum inhibitory (bactericidal) concentration, Staph (Axilla)
Type: cell-based, staphylococci
MEASUREMENT SETUP: 24 hrs. at 35° C., subculture further 24 hrs.; liquid culture medium
Where a name gives a salt, the structure may show the parent alone.
Please respond with the number in % and leave the unit unwritten.

CCCCNc1ccc(C(=O)OCCN(C)C)cc1 [Tetracaine HCl]    0.08
CN1CCC2=C(C1)C(c1ccccc1)c1ccccc12 (stereo not shown) [Phenindamine tartrate]    0.04
CN(C)CCN(Cc1ccccc1)c1ccccn1 [Tripelennamine HCl]    0.63
c1ccc2c(CC3=NCCN3)cccc2c1 [Naphazoline HCl]    0.31
Cc1cc(C(C)(C)C)cc(C)c1CC1=NCCN1 [Xylometazoline HCl]    0.08

Entry CC(CNC1CCCCC1)OC(=O)c1ccccc1 (stereo not shown) [Hexylcaine HCl] , MIC (%) - cidal, Staph (Axilla) reported as 0.16

Entry COc1ccc(CN(CCN(C)C)c2ccccn2)cc1 [Pyrilamine maleate] , MIC (%) - cidal, Staph (Axilla) reported as 0.63
